Cited source for all entries: paper PMC8171317

- System: human lung carcinoma (A549)
- assay-info: Cytotoxicity, resazurin assay
- Format: cell-based
- test-settings: 48 h, max tested 200 μM
Kindly state IC50 for each of the entries shown.

>>> df
                                   compound  result
0  CCCCCCCC1CC(=O)OC2C(OC(CCCCCCC)CC(=O)O1)OC(C)C(O)C2O (centres unmarked)  103 µM

# next compound below
Q. # get_value(readout='IC50', item= CCCCCCCC1CC(=O)OC2C(O)C(C)OC(OC(CCCCCCC)CC(=O)O1)C2O (centres unmarked) )
A. > 200 µM

---

- Test system: tomato leaf disks
- assay-info: Extracellular ROS production, luminol chemiluminescence
- Type: cell-based, Solanum lycopersicum
- test-settings: 100 μM, monitored over 720 min
metric: Extracellular ROS production

>>> df
                                   compound  experimental_system  result
0  CCCCCCC[C@@H]1CC(=O)OC[C@H]2O[C@@H](O[C@H](CCCCCCC)CC(=O)O1)[C@H](O)[C@@H](O)[C@@H]2O [Compound 1, ananatoside A]    tomato leaf disks     not

---

- assay-info: Cytotoxicity, resazurin assay
- Type: cell-based, human
- test-settings: human, DLD-1 colorectal adenocarcinoma cells, max tested 200 μM
metric: IC50 at 48 h (µM)
Give bare numbers, in µM.

compound	value-units	IC50 at 48 h
CCCCCCCC1CC(=O)OC2C(C)OC(OC(CCCCCCC)CC(=O)O1)C(O)C2O (stereo not shown) [Compound 4]	µM	70
CCCCCCCC1CC(=O)OC2C(O)C(C)OC(OC(CCCCCCC)CC(=O)O1)C2O (stereo not drawn) [Compound 6β]	µM	112
COc1cc([C@@H]2c3cc4c(cc3[C@@H](O[C@@H]3O[C@@H]5CO[C@@H](C)O[C@H]5[C@H](O)[C@H]3O)[C@H]3COC(=O)[C@H]23)OCO4)cc(OC)c1O [Etoposide, reference compound]	µM	27

# next compound below
Q. # get_value(readout='IC50 at 48 h', item= CCCCCCC[C@@H]1CC(=O)OC[C@H]2O[C@@H](O[C@H](CCCCCCC)CC(=O)O1)[C@H](O)[C@@H](O)[C@@H]2O [Compound 1, ananatoside A] )
A. 58

---

Kindly state Hemolysis (HC50 in μM) Erythrocytes for each of the entries shown.
- Test system: sheep blood erythrocytes
- assay-info: Hemolytic activity
- Type: cell-based
- test-settings: sheep blood erythrocytes; 1 h, 37 °C; max tested 200 μM
One number for each entry, in µM.

Consider the worked cases shown below.
>>> df
                                   molecule  result_number
0  CCCCCCCC1CC(=O)OC2C(OC(CCCCCCC)CC(=O)O1)OC(C)C(O)C2O (stereo not drawn) [Compound 5β]             14
1  CCCCCCC[C@H](CC(=O)O)OC(=O)C[C@@H](CCCCCCC)O[C@@H]1O[C@@H](C)[C@H](O)[C@@H](O)[C@H]1O [Compound 3, RhaC10C10]             65

# next molecule below
Q. # get_value(readout='Hemolysis (HC50 in μM) Erythrocytes', item= CCCCCCCC1CC(=O)OC2C(C)OC(OC(CCCCCCC)CC(=O)O1)C(O)C2O (stereo not shown) [Compound 4] )
A. 12.0

---

- assay-info: Cytotoxicity, resazurin assay, summary over cell lines
- Format: cell-based
- test-settings: human, DLD-1 and WS1 cells (summary over the three lines); A549, DLD-1 and WS1; read-out: Cytotoxicity IC50 against human cell lines
Kindly state IC50 at 48 h for each of the entries shown.

Consider the worked cases shown below.
>>> print(df.to_string())
                                   molecule        metric        result
0  CCCCCCC[C@@H]1CC(=O)OC[C@H]2O[C@@H](O[C@H](CCCCCCC)CC(=O)O1)[C@H](O)[C@@H](O)[C@@H]2O [Compound 1, ananatoside A]  IC50 at 48 h   50 to 58 µM
1  CCCCCCCC1CC(=O)OC2C(OC(CCCCCCC)CC(=O)O1)OC(C)C(O)C2O (stereo not drawn)  IC50 at 48 h  50 to 112 µM
2  CCCCCCC[C@H](CC(=O)O)OC(=O)C[C@@H](CCCCCCC)O[C@@H]1O[C@@H](C)[C@H](O)[C@@H](O)[C@H]1O  IC50 at 48 h      > 200 µM

Batch lookup, IC50 at 48 h per entry.
1. CCCCCCCC1CC(=O)OC2C(O)C(C)OC(OC(CCCCCCC)CC(=O)O1)C2O (stereo not drawn)
2. CCCCCCC[C@H](CC(=O)O)OC(=O)C[C@@H](CCCCCCC)O[C@@H]1O[C@H](CO)[C@@H](O)[C@H](O)[C@H]1O [Compound 2, ananatoside B]
3. CCCCCCCC1CC(=O)OC2C(C)OC(OC(CCCCCCC)CC(=O)O1)C(O)C2O (stereo not drawn)

A.
50 to 112 µM
> 200 µM
50 to 112 µM

---

Kindly state Hemolysis (HC50 in μM) Erythrocytes for each of the entries shown.
- Tested on: sheep blood erythrocytes
- assay-info: Hemolytic activity
- Format: cell-based
- test-settings: sheep blood erythrocytes; 1 h, 37 °C; max tested 200 μM
- Method: Owing to their surfactant properties, glycolipids can break the membrane of red blood cells causing hemolytic activity.[18] To understand if the cytotoxicity of macrolactones 1, 4, 5β, and 6β was due to their surface tension activity, we evaluated the hemolytic potential of synthetic glycolipids 1–6 against sheep erythrocytes (Table 5). […] The non-cytotoxic rhamnolipid 3 was also found to exert a weak hemolytic activity (HC50 = 65 ± 6 μM). […] Hemolytic Activity. […]
Marks after values point to notes of the source that are not given here.

Consider the worked cases shown below.
>>> print(df.to_string())
                                   compound      result
0  CCCCCCCC1CC(=O)OC2C(O)C(C)OC(OC(CCCCCCC)CC(=O)O1)C2O (stereo not drawn) [Compound 6α]  >200 ^d μM
1  CCCCCCC[C@H](CC(=O)O)OC(=O)C[C@@H](CCCCCCC)O[C@@H]1O[C@H](CO)[C@@H](O)[C@H](O)[C@H]1O [Compound 2, ananatoside B]  >200 ^d μM

Batch lookup, Hemolysis (HC50 in μM) Erythrocytes per entry.
1. CCCCCCC[C@@H]1CC(=O)OC[C@H]2O[C@@H](O[C@H](CCCCCCC)CC(=O)O1)[C@H](O)[C@@H](O)[C@@H]2O [Compound 1, ananatoside A]
2. CCCCCCCC1CC(=O)OC2C(O)C(C)OC(OC(CCCCCCC)CC(=O)O1)C2O (stereo not drawn) [Compound 6β]

A.
["12.3 ± 0.3 µM", "12.3 ± 0.5 µM"]

---

Kindly state IC50 at 48 h for each of the entries shown.
- assay-info: Cytotoxicity, resazurin assay
- Assay type: cell-based, human
- test-settings: human, A549 lung carcinoma cells, max tested 200 μM
- Protocol: As the anticancer potential of microbial rhamnolipids has previously been reported,[16] we next sought to evaluate the in vitro cytotoxicity of our synthetic and natural glycolipids 1–6 against cancerous cell lines, i.e., human lung carcinoma (A549) and colorectal adenocarcinoma (DLD-1). […] Cytotoxicity Assay. […] Cytotoxicity was assessed using resazurin9 on an automated 96-well Fluoroskan Ascent F1TM plate reader (Labsystems) using excitation and emission wavelengths of 530 and 590 nm, respectively. […]
Numbers only, in µM.

Consider the worked cases shown below.
compound	IC50 at 48 h [µM]
COc1cc([C@@H]2c3cc4c(cc3[C@@H](O[C@@H]3O[C@@H]5CO[C@@H](C)O[C@H]5[C@H](O)[C@H]3O)[C@H]3COC(=O)[C@H]23)OCO4)cc(OC)c1O [Etoposide, reference compound]	1.2
CCCCCCCC1CC(=O)OC2C(O)C(C)OC(OC(CCCCCCC)CC(=O)O1)C2O (stereo not drawn) [Compound 6β]	112
CCCCCCC[C@@H]1CC(=O)OC[C@H]2O[C@@H](O[C@H](CCCCCCC)CC(=O)O1)[C@H](O)[C@@H](O)[C@@H]2O [Compound 1, ananatoside A]	50

# next compound below
Q. # get_value(readout='IC50 at 48 h', item= CCCCCCCC1CC(=O)OC2C(C)OC(OC(CCCCCCC)CC(=O)O1)C(O)C2O (stereo not shown) [Compound 4] )
A. 56

---

- Test system: human normal skin fibroblasts (WS1)
- assay-info: Cytotoxicity, resazurin assay
- Assay type: cell-based
- test-settings: 48 h, max tested 200 μM
metric: IC50 (µM)
Numbers only, in µM.

Q. # get_value(readout='IC50', item= CCCCCCCC1CC(=O)OC2C(OC(CCCCCCC)CC(=O)O1)OC(C)C(O)C2O (centres unmarked) )
A. 105

---

- assay-info: Cytotoxicity, resazurin assay
- Type: cell-based, human
- test-settings: human, WS1 normal skin fibroblasts, max tested 200 μM
Kindly state IC50 at 48 h for each of the entries shown.
Numbers only, in µM.

Consider the worked cases shown below.
compound	IC50 at 48 h, µM
CCCCCCC[C@@H]1CC(=O)OC[C@H]2O[C@@H](O[C@H](CCCCCCC)CC(=O)O1)[C@H](O)[C@@H](O)[C@@H]2O [Compound 1, ananatoside A]	52
CCCCCCCC1CC(=O)OC2C(O)C(C)OC(OC(CCCCCCC)CC(=O)O1)C2O (stereo not drawn) [Compound 6β]	110
CCCCCCCC1CC(=O)OC2C(C)OC(OC(CCCCCCC)CC(=O)O1)C(O)C2O (stereo not shown) [Compound 4]	57

# next compound below
Q. # get_value(readout='IC50 at 48 h', item= COc1cc([C@@H]2c3cc4c(cc3[C@@H](O[C@@H]3O[C@@H]5CO[C@@H](C)O[C@H]5[C@H](O)[C@H]3O)[C@H]3COC(=O)[C@H]23)OCO4)cc(OC)c1O [Etoposide, reference compound] )
A. 34
